Attribution: patent US5486516A

Each entry below lists one item and its recorded mortality at 400 ppm value.
Test system: southern armyworm (Spodopetra eridania Cramer)
experiment.description: Mite/insect screen, Southern armyworm
Assay type: in vivo
experimental.context: Spodoptera eridania; rate 400 ppm, sprayed leaves; read-out: SAW results (percent mortality)
Write the numeric value and follow it with the unit.

Consider the reported mortality at 400 ppm for these compounds:
Cc1oc2ncnc(OCCc3cccs3)c2c1C | 0%
Cc1cc2c(NCCc3ccc(Cl)cc3)ncnc2o1 | 0%
CCCC(C)(CC)Oc1ccc(CCOc2ncnc3oc(C)c(C)c23)cc1 (centres unmarked) | 0%
Cc1coc2ncnc(NCCSCc3c(F)cccc3Cl)c12 | 0%

Query compound follows.
Problem: Could you tell me which mortality at 400 ppm is on file for Cc1oc2ncnc(OCCc3ccc(OCC(F)(F)F)cc3)c2c1C ?
Solution: 100%

* * *

Tested on: Puccinia recondita tritici (leaf rust)
experiment.description: Plant pathology screen (Test 1), leaf rust on wheat
experimental.context: in Triticum aestivum, foliar, read-out: LEAF RUST control rating
endpoint.name: pest or weed control at 400 µg/mL

Consider the reported pest or weed control at 400 µg/mL for these compounds:
Cc1oc2ncnc(OCCc3ccccc3C(F)(F)F)c2c1C | 0 to 19%
Cc1cc2c(OCCc3ccc(C(C)(C)C)cc3)ncnc2o1 | 0 to 19%
Cc1oc2ncnc(OCC(C)c3ccc(CC(C)C)cc3)c2c1C (stereo not shown) | 20 to 89%
Cc1cc2c(NCCc3ccc4ccccc4c3)ncnc2o1 | 90 to 100%
Cc1coc2ncnc(NCCSCc3c(F)cccc3Cl)c12 | 0 to 19%
COc1ccc(Oc2ncnc3oc(C)c(C)c23)cc1 | 0 to 19%

Problem: Could you tell me which pest or weed control at 400 µg/mL is on file for Cc1oc2ncnc(NCCSCc3c(F)cccc3Cl)c2c1C ?
Solution: 0 to 19%

Problem: Could you tell me which pest or weed control at 400 µg/mL is on file for Cc1coc2ncnc(NCCc3ccc(Cl)cc3)c12 ?
Solution: 90 to 100%

Problem: Could you tell me which pest or weed control at 400 µg/mL is on file for Cc1oc2ncnc(Oc3ccccc3C#N)c2c1C ?
Solution: 0 to 19%

Problem: Could you tell me which pest or weed control at 400 µg/mL is on file for Cc1oc2ncnc(Oc3ccccc3)c2c1C ?
Solution: 20 to 89%

Problem: Could you tell me which pest or weed control at 400 µg/mL is on file for COc1ccc(CCNc2ncnc3occ(C)c23)cc1OC ?
Solution: 90 to 100%

Problem: Could you tell me which pest or weed control at 400 µg/mL is on file for Cc1cc2c(OCCc3ccc(-c4ccccc4)cc3)ncnc2o1 ?
Solution: 0 to 19%

* * *

Each entry below lists one item and its recorded pest or weed control at 400 µg/mL value.
System: Puccinia recondita tritici (leaf rust)
experiment.description: Plant pathology screen (Test 1), leaf rust on wheat
experimental.context: in Triticum aestivum, foliar, read-out: LEAF RUST control rating

Cc1ccccc1Oc1ncnc2oc(C)c(C)c12 | 20 to 89%
CCCCCCOc1ccc(CC(CNc2ncnc3oc(C)c(C)c23)c2cccc3ccccc23)cc1 (stereo not drawn) | 0 to 19%
Cc1oc2ncnc(OCCCc3cccnc3)c2c1C | 0 to 19%
Cc1coc2ncnc(NCCc3ccccc3)c12 | 90 to 100%
Cc1oc2ncnc(Oc3ccc(F)cc3)c2c1C | 90 to 100%
Cc1oc2ncnc(OCCc3ccc(C(C)(C)C)cc3)c2c1C | 20 to 89%

Problem: Form field: pest or weed control at 400 µg/mL recorded for Cc1oc2ncnc(OCCc3ccc(C(F)(F)F)cc3)c2c1C with Puccinia recondita tritici (leaf rust) (enter value)
Solution: 90 to 100%

Problem: Form field: pest or weed control at 400 µg/mL recorded for CCOc1ccc(CCNc2ncnc3oc(C)c(C)c23)cc1 with Puccinia recondita tritici (leaf rust) (enter value)
Solution: 20 to 89%

Problem: Form field: pest or weed control at 400 µg/mL recorded for Fc1ccc(Oc2ncnc3oc4c(c23)CCCC4)cc1 with Puccinia recondita tritici (leaf rust) (enter value)
Solution: 20 to 89%

Problem: Form field: pest or weed control at 400 µg/mL recorded for Cc1ccc(CCNc2ncnc3occ(C)c23)cc1 with Puccinia recondita tritici (leaf rust) (enter value)
Solution: 90 to 100%
